# System: SH-SY5Y cells
# assay.context: MTT, 0–80 μM
property: Cytotoxicity on SH-SY5Y cells (in words)

> print(dat)
                                   compound                    result
1  CCCCCCCCC(=O)NCc1ccc(O)c(O)c1 [Compound 3n, N-(3,4-Dihydroxybenzyl) nonanamide]  strong growth inhibition
2          CC(C)CCCCCCC(=O)NCc1ccc(O)c(O)c1  strong growth inhibition
3  CCCCCCCCNC(=O)Cc1ccc(O)c(O)c1 [Compound 3q, 2-(3,4-Dihydroxyphenyl)-N-octylacetamide]  strong growth inhibition

---

# test.description: DPPH radical scavenging assay
# Assay type: biochemical
# assay.context: in the presence of 0.5 mM compounds
// not satisfied strictly below 20 % ^c in DPPH inhibiting rate; satisfied otherwise

Some entries whose results are on file:
> print(dat)
                                   compound   answer.label
1  CCCCCCNC(=O)Cc1ccc(OC)c(OC)c1 [Compound 3g, 2-(3,4-Dimethoxyphenyl)-N-hexylacetamide]  not satisfied
2  CCCCCCCCNC(=O)Cc1ccc(OC)c(OC)c1 [Compound 3p, 2-(3,4-Dimethoxyphenyl)-N-octylacetamide]      satisfied
3  CCCCCCCC(=O)NCc1ccc(OC)c(OC)c1 [Compound 3j, N-(3,4-Dimethoxybenzyl)octanamide]      satisfied
4  CCCCCCC(=O)NCc1ccc(OC)c(OC)c1 [Compound 3e, N-(3,4-Dimethoxybenzyl)heptanamide]      satisfied

Here is another compound to look at.
Input line: Reported DPPH inhibiting rate reaches at least 20 % ^c for CCCCCCCCC(=O)NCc1ccc(OC)c(OC)c1 [Compound 3m, N-(3,4-Dimethoxybenzyl)nonanamide] ?
Output line: not satisfied
